Values compiled from PubChem BioAssay (NCI).

growth by entry:
# Test system: SF-295 CNS
# ASSAY SUMMARY: NCI-60 one-dose screen, 48 h (100 = growth as untreated, 0 = no growth, -100 = all killed)
# MEASUREMENT SETUP: 10 µM unless noted
This is part of a sample that, as a whole, favours compounds with a hit. Of some 83,000 tested, about 20% had one in any assay. Calls of active or inactive are those of the source. How the source made its calls: active means growth percent below 10; inactive means the rest.

STRUCTURE NOTATION	TESTED SYSTEM	RESULT
O=C(CCc1nnc2sc(-c3ccc(Cl)cc3Cl)nn12)c1nc2ncccc2[nH]1	SF-295 CNS	-56.8% (active)
O=c1c2cc(F)ccc2sc2c(NCCCNCCO)nc3ccc(Cl)cc3c12	SF-295 CNS	91.3% (inactive)
CC(C)[C@H](NC(=O)Cn1cc(C(=O)O)nn1)C(=O)O	SF-295 CNS	93% (inactive)
C1CCN(c2nc(N3CCCCC3)nc(N3CCOCC3)n2)CC1	SF-295 CNS	111% (inactive)

Query block: Entry O=C(Nc1ccc(N2CCNCC2)cn1)c1[nH]ncc1Nc1ncnc2sccc12 : reported growth = ?
Result block: 97.3% (inactive)

Query block: One more compound: COc1ccc(-c2cn[nH]c2-c2cc(OC)c(OC)c(OC)c2)cc1OCc1ccccc1
Result block: -1.63% (active)

Query block: One more compound: Cc1sc2ncnc(Sc3nc4ccccc4[nH]3)c2c1C
Result block: -81.7% (active)

Query block: One more compound: O=C1N=c2ccccc2=C1c1sc(=Nc2ccccc2)n(Nc2ccccc2)c1O
Result block: 102% (inactive)

Query block: One more compound: COc1ccc(Cn2c(Br)c3c(c2-c2cc(OC)c(OC)c(OC)c2)CCc2sc(NC(=O)c4ccc(OC)cc4)nc2-3)cc1
Result block: 67.8% (inactive)

Query block: One more compound: O=C(N=Nc1c(O)[nH]c2ccccc12)c1oc2ccccc2c1CN1CCN(c2ccccc2)CC1
Result block: 13% (inactive)
